Molecular target: human TPO receptor (hTPOR) (Homo sapiens)
Construct: expressed in transfected cells; host or cells: BaF-B03 (murine IL-3 dependent cell line)
Sequence (P40238 26-635): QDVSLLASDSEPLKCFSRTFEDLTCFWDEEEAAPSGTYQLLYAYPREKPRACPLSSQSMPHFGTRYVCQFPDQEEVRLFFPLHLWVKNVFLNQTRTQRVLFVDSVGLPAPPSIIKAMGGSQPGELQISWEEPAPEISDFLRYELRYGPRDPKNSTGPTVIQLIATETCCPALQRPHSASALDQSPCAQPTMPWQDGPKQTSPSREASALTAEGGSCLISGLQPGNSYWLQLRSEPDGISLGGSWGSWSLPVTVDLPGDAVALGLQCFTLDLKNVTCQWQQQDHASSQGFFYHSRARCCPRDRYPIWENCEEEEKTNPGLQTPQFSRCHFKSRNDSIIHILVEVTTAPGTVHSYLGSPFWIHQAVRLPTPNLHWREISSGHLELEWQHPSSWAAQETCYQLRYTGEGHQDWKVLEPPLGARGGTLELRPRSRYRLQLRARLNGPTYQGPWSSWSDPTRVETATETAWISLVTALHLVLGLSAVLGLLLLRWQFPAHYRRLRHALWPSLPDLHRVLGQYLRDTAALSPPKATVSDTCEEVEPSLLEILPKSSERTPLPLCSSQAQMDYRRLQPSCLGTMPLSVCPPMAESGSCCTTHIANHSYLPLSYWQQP
Assay: Thrombopoietic activity: proliferation of TPO dependent BaF/hTPOR cells (WST-1, absorbance at 450 nm)
Format: cell-based
Conditions: 20 h + 4 h WST-1, ED50 = half concentration of the concentration showing the maximum thrombopoietic activity, Table 1
Method: The TPO dependent BaF/hTPOR cell line which was established by introducing human TPO receptor (hTPOR) into BaF-B03 cells according to Collins et al (J. Cell. Physiol., 137:293-298 (1988)) was used to test the thrombopoietic activity of the present compound. The DNA sequences and encoded peptide sequences for human hTPOR have been described by Vigon et al (Proc. Natl. Acad. Sci. USA, 89:5640-5644 (1992)). […] The absorbance at 450 nm was measured. […]
measured parameter: pEC50
# reply with the number alone; pEC50 is -log10 of concentration in mol/L

Which pEC50 reading was recorded for the compound `CCCCCCCOc1cccc(-c2csc(NC(=O)c3cc(Cl)c(/C=C(\C)C(=O)O)c(Cl)c3)n2)c1OC` ?
7.88

// query pEC50 value for entry `COc1c(CCCOCCC(C)C)cccc1-c1csc(NC(=O)c2cc(F)c(/C=C(\C)C(=O)O)c(F)c2)n1`
7.77

Fill blank: measured pEC50 of the compound `COc1c(CCOCCC(C)C)cccc1-c1csc(NC(=O)c2cc(Cl)c(/C=C(\C)C(=O)O)c(Cl)c2)n1` is ____.
7.93

What pEC50 value was documented for this compound, CCCC(CCc1cccc2c1CCc1sc(NC(=O)c3cc(F)c(C=C(C)C(=O)O)c(F)c3)nc1-2)OC (stereo not shown) [Compound A12] ?
9.10

Form field: reported pEC50 of CCOCCCCOC(c1cccc(-c2csc(NC(=O)c3cc(F)c(C=C(C)C(=O)O)c(F)c3)n2)c1F)C1CCCCC1 (stereo not shown)
9.17

Entry under review: CCCCCCCCCC(OC)c1cccc(-c2csc(NC(=O)c3cc(Cl)c(/C=C(\OC)C(=O)O)c(Cl)c3)n2)c1OC (stereo not shown) . Reported pEC50?
8.19

Which pEC50 is listed for CCCCOC(CCC)c1cccc(-c2csc(NC(=O)c3cc(F)c(C=C(C)C(=O)O)c(F)c3)n2)c1F (stereo not shown) ?
9.11
